We begin with a simple list: items and their reported growth inhibition.
# test method notes: NCI Yeast Anticancer Drug Screen. Data for the mlh1 rad18 strain (AID 175)
# details: S. cerevisiae mlh1 rad18 strain growth inhibition; at 50.0 µM; active compounds read high
# Experimental: Growth inhibition of yeast strains with defined genetic alterations is measured as a screen for potential anti-cancer activity. Selected strains with alterations in DNA damage repair or cell cycle control were exposed to compounds and growth inhibition was measured relative to vehicle treated controls. The strain used in this assay is mlh1 rad18
This is part of a sample that, as a whole, favours compounds with a hit. Of some 79,000 tested, about 15% had one in any assay. Activity calls are given as the source filed them. Rule as the data show it: active = growth inhibition above about 70%; inactive = the rest.

Returns the measured growth inhibition for the input molecule. Input: Cc1ccc(S(=O)(=O)Oc2c(Br)cc(-c3ccccc3)cc2Br)cc1
18.6% (inactive)

----------
Below, each of the molecules is paired with its reported growth inhibition value.
# test method notes: NCI Yeast Anticancer Drug Screen. Data for the rad50 strain (AID 155);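 also: 0% = growth of vehicle-only cultures of the same strain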
# details: S. cerevisiae rad50 strain growth inhibition; at 50.0 µM; active compounds read high
Compounds without any hit were thinned out: in the full panel of roughly 79,000, 15% have a hit.
Quick note: give the figure in %, leave out the unit.

# molecule, growth inhibition / %
rows = [
    ("COc1cc(N)c(OC)nn1", -1.1),
    ("N#CC(c1ccccc1)[N+](=O)[O-] (configuration not stated)", 11.2),
    ("CCOC(=O)C1(C(O)(C2CC2)C2(C(=O)OCC)CC2)CC1", -9.1),
]

Query molecule follows.
Can you share its growth inhibition? I mean this molecule: COC(=O)N1C(C#N)=CCc2ccccc21
26.4

----------
# test method notes: NCI Yeast Anticancer Drug Screen. Data for the rad50 strain (AID 155);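 also: 0% = growth of vehicle-only cultures of the same strain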
# details: S. cerevisiae rad50 strain growth inhibition; at 50.0 µM
The panel holds about 79,000 compounds, 15% with a hit somewhere; the sample as a whole holds those more often. Calls of active or inactive are those of the source. No stated cut-off is given here; in the data, active means growth inhibition above about 70%; inactive means the rest.
Valid outcomes are listed here; reply with one: active, inactive

These recorded examples may help you get a feel for the data.
# compound, qualitative label
measured = [
    ("CC(O)c1cc2c(s1)C(=O)c1sccc1C2=O (configuration not stated)", "active"),
    ("CC1=NC(C(=O)O)CC1C (configuration not stated)", "inactive"),
    ("O=C1CCC([N+](=O)[O-])C(c2ccccc2Cl)N1 (configuration not stated)", "inactive"),
    ("CC1=NNC(=O)CC1C(O)c1ccccc1 (configuration not stated)", "inactive"),
    ("OC1(c2ccccc2)C=C(c2ccccc2)C=C(c2ccccc2)O1 (configuration not stated)", "inactive"),
    ("C(=C\\c1cc(-c2ccc3ccccc3n2)nc2ccc3ccccc3c12)/c1ccc2ccccc2n1", "inactive"),
    ("Cn1c(=O)[nH]c2c(c1=O)CCCS2", "inactive"),
    ("Cc1cc2c(c(C(C)(C)C)c1)OC(=O)/C2=C1/C(=O)Oc2c1cc(C)cc2C(C)(C)C", "inactive"),
]

Identify the outcome logged in this assay for the compound shown: COc1ccccc1N=Nc1c(-c2ccccc2)nn(C(N)=S)c1-c1ccccc1
inactive

Also need O=C1CC2C(=O)N(Cc3ccccc3)C1C=C2S(=O)(=O)c1ccccc1 (configuration not stated) , thanks.
inactive

Next entry: Nc1ccc(C(=O)c2ccccc2)cc1
inactive

// repeat for Nc1nc(-c2ccccc2)nc2nc[nH]c12 and report
inactive
